Source: patent US12590062B2

# Assay Target: PD-1/PD-L1 interaction (Homo sapiens, UniProt Q9NZQ7)
# Construct: expressed in transfected cells; host or cells: CHO cells (aAPC-PD-L1) co-cultured with Jurkat cells overexpressing PD-1 and an NFAT-luciferase reporter
# Sequence (Q9NZQ7 19-290): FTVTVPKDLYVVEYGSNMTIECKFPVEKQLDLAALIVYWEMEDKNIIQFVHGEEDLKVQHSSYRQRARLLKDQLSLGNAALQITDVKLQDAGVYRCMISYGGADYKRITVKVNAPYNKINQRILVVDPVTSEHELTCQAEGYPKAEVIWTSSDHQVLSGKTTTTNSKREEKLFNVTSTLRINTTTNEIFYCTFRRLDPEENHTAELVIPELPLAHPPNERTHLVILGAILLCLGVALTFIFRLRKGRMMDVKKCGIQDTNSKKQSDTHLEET
# Experiment Description: PD-1/PD-L1 NFAT reporter co-culture assay
# Type: cell-based
# Test Settings: Jurkat PD-1 NFAT-luciferase cells co-cultured with aAPC-PD-L1 CHO cells, 6 hrs at 37° C.; read-out: EC50 NFAT Luciferase
Readout Label: EC50 (nM)

A: COc1nc(OCc2cccc(-c3cccc(COc4nc(OC)c(CNCCCC(=O)O)cc4Cl)c3C)c2C)c(Cl)cc1CNCCCC(=O)O [Example 183]
B: COc1nc(-c2cccc(-c3cccc4c3CC[C@@H]4Oc3nc(OC)c(CN4CCC[C@H](C(=O)O)C4)cc3Cl)c2Cl)ccc1CNC[C@@H]1CCC(=O)N1 [Example 759]
C: Cc1c(COc2cc(OCc3cncc(C#N)c3)c(CNC[C@@H](F)C(C)(C)O)cc2Cl)cccc1-c1cccc(COc2cc(OCc3cncc(C#N)c3)c(CNC[C@@H](F)C(C)(C)O)cc2Cl)c1C [Example 276]
[in] Form: Sort by [EC50] Order [ ascending ] Reply format: the labels, ordered as requested.
[out] B, A, C

* * *

# Assay Target: PD-1/PD-L1 interaction (Homo sapiens, UniProt Q9NZQ7)
# Construct: expressed in transfected cells; host or cells: CHO cells (aAPC-PD-L1) co-cultured with Jurkat cells overexpressing PD-1 and an NFAT-luciferase reporter
# Experiment Description: PD-1/PD-L1 NFAT reporter co-culture assay
# Assay type: cell-based
# Test Settings: Jurkat PD-1 NFAT-luciferase cells co-cultured with aAPC-PD-L1 CHO cells, 6 hrs at 37° C.; read-out: EC50 NFAT Luciferase
Readout Label: EC50 (nM)

COc1nc(-c2cccc(-c3cccc4c3CC[C@@H]4Oc3nc(OCc4cncc(C#N)c4)c(CN[C@@](C)(CO)C(=O)O)cc3Cl)c2Cl)ccc1CN1CC2(C1)CN(C(=O)OC(C)(C)C)C2
243

a: COc1nc(OCc2cccc(-c3cccc(COc4nc(OC)c(CN5CC[C@H](O)C5)cc4Br)c3C)c2C)c(Br)cc1CN1CC[C@H](O)C1
b: COc1nc(OCc2cccc(-c3cccc(COc4nc(OC)c(CNCCNS(C)(=O)=O)cc4Br)c3C)c2C)c(Br)cc1CNCCNS(C)(=O)=O
[in] // which entry reports the smaller EC50, a or b ? // caller expects the label of the chosen entry
[out] a
(a: 390 nM, b: 1380 nM)

* * *

# Assay Target: PD-1/PD-L1 (Homo sapiens, UniProt Q9NZQ7)
# Experiment Description: PD-1/PD-L1 biochemical protein-protein interaction assay (ALPHA)
# Assay type: binding
# Test Settings: 0.3 nM His tagged PD-L1, 2.5 nM biotinylated Fc-PD-1, 60 minutes at 25° C., read-out: IC50 PD-L1-PD-1 Alpha IC50-mono PD-L1-fcP-D1
Readout Label: IC50 (pM)

COc1cc(-c2cccc(-c3cccc(COc4cc(OCc5cncc(C#N)c5)c(CN[C@@](C)(CO)C(=O)O)cc4Cl)c3C)c2C)ccc1CNCC1CCC(=O)N1 (stereo partly drawn)
84

I: N#Cc1cc(C#N)cc(COc2nc(OCc3cccc(-c4cccc(-c5ccc(CN6CC7(CCC(=O)N7)C6)cc5)c4Cl)c3Cl)c(Cl)cc2CNC[C@@H](O)CC(=O)O)c1
II: COc1nc(-c2cccc(-c3cccc4c3CC[C@@H]4Oc3nc(OC)c(CN4C[C@H](C(=O)O)[C@@H](C(C)C)C4)cc3Cl)c2Cl)ccc1CNC[C@@H]1CCC(=O)N1
[in] // which entry reports the smaller IC50, I or II ? // caller expects the label of the chosen entry
[out] II

* * *

# Assay Target: PD-L1 (Homo sapiens, UniProt Q9NZQ7)
# Construct: determine if they can specifically dimerize the extracellular domains of PD-L1
# Experiment Description: PD-L1/PD-L1 dimerization biochemical protein-protein interaction assay (ALPHA)
# Assay type: binding
# Test Settings: compound-induced PD-L1 dimerization, head prints '1 nM' (0.5 nM His-tagged PD-L1 and 0.5 nM FLAG-tagged PD-L1), read-out: AC50 PDL1 Dimer Alpha 1 nM
Readout Label: AC50 (nM)

C[C@](CO)(NCc1cc(Br)c(OCc2cccc(-c3cccc(-c4ccc5c(c4)C[C@@H](N)C5)c3Cl)c2Cl)nc1OCc1cncc(C#N)c1)C(=O)O
17.7

a: Cc1c(COc2cc(OCc3cncc(C#N)c3)c(CN[C@@](C)(CO)C(=O)O)cc2Cl)cccc1-c1cccc(-c2ccc(CN[C@H]3CC[C@H](O)CC3)cc2)c1C
b: Cc1c(COc2cc(OCc3cncc(C#N)c3)c(CN[C@@](C)(CO)C(=O)O)cc2Cl)cccc1-c1cccc(COc2cc(OCc3cncc(C#N)c3)c(CN[C@@](C)(CO)C(=O)O)cc2Cl)c1Br
c: COc1nc(-c2cccc(-c3cccc4c3CC[C@@H]4Oc3nc(OC)c(CN4CCC[C@H](C(=O)O)C4)cc3Cl)c2Cl)ccc1CNC[C@@H]1CCC(=O)N1
d: C[C@@](CO)(NCc1ccc(O[C@H]2CCc3c(-c4cccc(-c5ccc(CNC[C@@H]6CCC(=O)N6)cc5)c4Cl)cccc32)nc1OCc1cncc(C#N)c1)C(=O)O
[in] Give the ascending ranking of the items by reported AC50. Reply format: the labels, ordered as requested.
[out] c, d, b, a

A: COc1nc(-c2cccc(-c3cccc4c3CC[C@@H]4Oc3nc(OC)c(CN4CC[C@H](C(=O)O)C4)cc3Cl)c2Cl)ccc1CN1CC(O)C1
B: CN1CCCC1c1ccc(-c2cccc(-c3cccc4c3CC[C@@H]4Oc3nc(OCc4cncc(C#N)c4)c(CN[C@@](C)(CO)C(=O)O)cc3Cl)c2Cl)cc1 (some centres unmarked)
[in] // which entry reports the smaller AC50, A or B ? // caller expects the label of the chosen entry
[out] B

* * *

# Assay Target: PD-L1 (Homo sapiens)
# Construct: determine if they can specifically dimerize the extracellular domains of PD-L1
# Experiment Description: PD-L1/PD-L1 dimerization biochemical protein-protein interaction assay (ALPHA)
# Type: binding
# Test Settings: compound-induced PD-L1 dimerization, head prints '1 nM' (0.5 nM His-tagged PD-L1 and 0.5 nM FLAG-tagged PD-L1), read-out: AC50 PDL1 Dimer Alpha 1 nM
Readout Label: AC50 (nM)

1: COc1nc(O[C@H]2CCc3c(-c4cccc(-c5cnc(CNC[C@H]6C[C@H](O)C6)c(OC)n5)c4Cl)cccc32)c(Cl)cc1CN1CC[C@H](C(=O)O)C1
2: COc1nc(-c2cccc(-c3cccc(-c4ccc5cc(CN(C)C)[nH]c5c4)c3Cl)c2Cl)ccc1CNC[C@@H]1CCC(=O)N1
3: COc1nc(O[C@H]2CCc3c(-c4cccc(-c5ccc(CNC[C@@H]6CCC(=O)N6)c(OC(F)F)c5)c4Cl)cccc32)c(Cl)cc1CNC[C@@H]1CCC(=O)N1
[in] Form: Sort by [AC50] Order [ ascending ] Reply format: the labels, ordered as requested.
[out] 1, 3, 2

* * *

# Assay Target: PD-L1 (Homo sapiens)
# Construct: determine if they can specifically dimerize the extracellular domains of PD-L1
# Experiment Description: PD-L1/PD-L1 dimerization biochemical protein-protein interaction assay (ALPHA)
# Assay type: binding
# Test Settings: compound-induced PD-L1 dimerization, head prints '1 nM' (0.5 nM His-tagged PD-L1 and 0.5 nM FLAG-tagged PD-L1), read-out: AC50 PDL1 Dimer Alpha 1 nM
Readout Label: AC50 (nM)

Check out these entries, answers already filled in.
COc1nc(-c2cccc(-c3csc(-c4cnc(CNC[C@@H]5CCC(=O)N5)c(OC)n4)c3)c2Cl)ccc1CNC[C@@H]1CCC(=O)N1 [Example 600]
261
N#Cc1cc(C#N)cc(COc2nc(OCc3cccc(-c4cccc(-c5ccc(CNC[C@@H]6CCC(=O)N6)cc5)c4Cl)c3Cl)c(Cl)cc2CNC[C@@H](O)CC(=O)O)c1 [Example 576]
24.3
Cc1c(-c2nc3ccc(CNC[C@@H](O)CC(=O)O)cc3s2)cccc1-c1cccc2c1CC[C@@H]2Oc1nc(OCc2cncc(C#N)c2)c(CNC[C@@H](O)CC(=O)O)cc1Cl [Example 396]
37.9
COc1nc(-c2cccc(-c3cccc(-c4ccc5[nH]c(CN(C)C)cc5c4)c3Cl)c2Cl)ccc1CNC[C@@H]1CCC(=O)N1 [Example 606]
558
Cc1c(COc2cc(OCc3cncc(C#N)c3)c(CNC(C)(CO)C(=O)O)cc2Cl)cccc1-c1cccc(-c2ccc(CN3CCC4(CC3)CNC4=O)cc2)c1C (stereo not drawn) [Example 443]
154

1: Cc1c(COc2cc(OCc3cncc(C#N)c3)c(CNC[C@@H](O)CC(=O)O)cc2Cl)cccc1-c1cccc(-c2ccc(CN3CC[C@H](O)C3)cc2)c1C [Example 335]
2: COc1nc(O[C@H]2CCc3c(-c4cccc5c4CC[C@@H]5Oc4nc(OC)c(CNC[C@@H](O)CC(=O)O)cc4Cl)cccc32)c(Cl)cc1CNC[C@@H](O)CC(=O)O [Example 6]
[in] From the recorded data, which exceeds the other in AC50: 1 or 2 ? // caller expects the label of the chosen entry
[out] 1
(1: 231 nM, 2: 90.9 nM)

P: Cc1c(COc2cc(OCc3cncc(C#N)c3)c(CN[C@@](C)(CO)C(=O)O)cc2Cl)cccc1-c1cccc(-c2ccc3c(c2)CCC3N2CC(C)C2)c1C (stereo partly drawn) [Example 371]
Q: COc1nc(-c2csc(-c3cccc(-c4ccc(CNC[C@@H]5CCC(=O)N5)c(OC)n4)c3Cl)c2)ccc1CNC[C@@H]1CCC(=O)N1 [Example 597]
[in] From the recorded data, which exceeds the other in AC50: P or Q ? // caller expects the label of the chosen entry
[out] Q
(Q: 310 nM, P: 78 nM)
